For each record, write down the corresponding PBM binding z-score.
- Test system: LXRa homodimer (NR concentration 270 nM)
- test: PBM binding z-score (relative to random genomic background probes); higher = stronger binding; sequences stand for … in GC…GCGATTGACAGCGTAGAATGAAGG

stdin: Item under review: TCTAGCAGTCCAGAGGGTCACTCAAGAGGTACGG . Reported PBM binding z-score?
stdout: -0.326

stdin: Would you kindly repeat that for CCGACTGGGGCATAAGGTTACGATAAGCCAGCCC ?
stdout: -0.328

stdin: What would you report for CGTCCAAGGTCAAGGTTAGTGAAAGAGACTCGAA ?
stdout: 0.37

stdin: Request: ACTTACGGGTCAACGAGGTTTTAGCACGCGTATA
stdout: 0.188

stdin: Let us now turn to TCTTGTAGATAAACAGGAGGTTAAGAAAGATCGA
stdout: 0.276

stdin: // repeat for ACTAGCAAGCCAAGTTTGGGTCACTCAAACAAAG and report
stdout: -0.55

stdin: For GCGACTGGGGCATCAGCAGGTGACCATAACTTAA then?
stdout: -0.385

stdin: Now this one: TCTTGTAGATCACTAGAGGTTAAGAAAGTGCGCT
stdout: 1.63

stdin: Could you do the same for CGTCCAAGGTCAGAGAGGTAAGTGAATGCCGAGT , please?
stdout: 0.174

stdin: Please give the result for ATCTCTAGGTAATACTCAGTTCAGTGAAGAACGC too.
stdout: 1.19

stdin: Next entry: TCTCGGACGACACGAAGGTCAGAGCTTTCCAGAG
stdout: -0.0974

stdin: And for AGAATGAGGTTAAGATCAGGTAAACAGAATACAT ?
stdout: -0.00313

stdin: Same question, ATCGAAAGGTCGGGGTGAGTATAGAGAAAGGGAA this time
stdout: 0.378

stdin: Please answer likewise for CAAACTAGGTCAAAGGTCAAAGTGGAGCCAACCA
stdout: 5.57

stdin: Cool, now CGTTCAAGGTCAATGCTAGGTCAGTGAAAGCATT
stdout: 2.89

stdin: Follow-up item: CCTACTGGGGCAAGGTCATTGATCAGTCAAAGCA
stdout: 1.02

stdin: // repeat for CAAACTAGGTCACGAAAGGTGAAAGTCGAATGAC and report
stdout: 0.891

stdin: Queued: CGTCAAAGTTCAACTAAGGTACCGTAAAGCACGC
stdout: 4.3

stdin: Query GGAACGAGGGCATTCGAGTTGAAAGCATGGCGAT next
stdout: -0.268

stdin: // next record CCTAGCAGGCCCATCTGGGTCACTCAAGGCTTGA
stdout: -0.426

stdin: Then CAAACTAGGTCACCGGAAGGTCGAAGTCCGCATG ?
stdout: 1.21

stdin: What about this sequence? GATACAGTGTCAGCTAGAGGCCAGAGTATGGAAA
stdout: -0.437

stdin: Now consider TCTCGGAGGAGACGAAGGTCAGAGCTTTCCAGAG .
stdout: -0.124

stdin: Also check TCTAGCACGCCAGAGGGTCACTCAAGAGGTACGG
stdout: -0.323

stdin: Thanks! And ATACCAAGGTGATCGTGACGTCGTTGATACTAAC ?
stdout: 0.147

stdin: Also check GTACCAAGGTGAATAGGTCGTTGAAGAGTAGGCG
stdout: 0.077

The reported measurements were obtained from the supplement of paper PMC6555819.
